Catalogue of Kd values
- STUDY SYSTEM: RARα (Homo sapiens, UniProt P10276)
- Sequence (P10276 182-417): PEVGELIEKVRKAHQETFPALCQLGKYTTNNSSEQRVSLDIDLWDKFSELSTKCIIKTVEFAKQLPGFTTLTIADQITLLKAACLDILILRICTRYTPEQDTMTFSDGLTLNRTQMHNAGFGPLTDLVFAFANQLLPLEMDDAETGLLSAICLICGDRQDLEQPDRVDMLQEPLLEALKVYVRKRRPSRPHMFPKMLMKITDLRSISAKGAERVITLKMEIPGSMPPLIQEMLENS
- EXPERIMENT SUMMARY: Fluorescence competition binding assay (displacement of DC271)
- TEST CONTEXT: stated for the RARs (RARα and RARγ) together; read-out: K D, binding to the RARs

# annotated cases, reported Kd shown
>  <MOLECULE>
COc1cc2c(cc1C#Cc1ccc(C(=O)O)cn1)C(C)(C)CCC2(C)C

>  <Kd>
> 1000 nM

$$$$
>  <MOLECULE>
Cc1sc(-c2ccc(C(=O)O)cc2F)nc1-c1cnc2c(n1)C(C)(C)CCC2(C)C

>  <Kd>
> 1000 nM

$$$$
>  <MOLECULE>
Cc1cc2c(cc1C#Cc1ncc(C(=O)O)cn1)C(C)(C)CCC2(C)C

>  <Kd>
100 to 1000 nM

$$$$

Okay, now this molecule:
**Q:** Report Kd for Cc1sc(-c2ccc(C(=O)O)cc2)nc1-c1ccc2c(c1)C(C)(C)CCC2(C)C [GZ25, reference compound] please.
**A:** 100 to 1000 nM
